Test system: Amaranthus retroflexus
ASSAY PROCEDURE: Post-emergence herbicidal action, AMARE
Format: in vivo
Design: key: % herbicidal action vs untreated; 100 = plants died, 0 = like control
DETAILS: post-emergence, dosage 80 g/ha
MEASUREMENT NAME: herbicidal action AMARE (%)
Numeric answer only, unit % assumed.

Here's what some known entries look like.
Cn1nnnc1NC(=O)c1ccc(C(F)F)c(CS(C)(=O)=O)c1Cl :: 80
CSCc1c(Cl)ccc(C(=O)Nc2nnnn2C)c1Cl :: 100
CCSCc1c(C(F)(F)F)ccc(C(=O)Nc2nnnn2C)c1Cl :: 100

q: Check Amaranthus retroflexus data and give herbicidal action AMARE for CCn1nnnc1NC(=O)c1ccc(C(F)(F)F)c(CSCCOC)c1Cl .
a: 100

q: Check Amaranthus retroflexus data and give herbicidal action AMARE for CCSCc1c(C(F)(F)F)ccc(C(=O)Nc2nnnn2CC)c1Cl .
a: 90

q: Check Amaranthus retroflexus data and give herbicidal action AMARE for CC[S+]([O-])Cc1c(C(F)(F)F)ccc(C(=O)Nc2nnnn2C)c1Br (racemic) .
a: 90

q: Check Amaranthus retroflexus data and give herbicidal action AMARE for Cn1nnnc1NC(=O)c1ccc(C(F)(F)F)c(CS(C)(=O)=O)c1Cl .
a: 100

q: Check Amaranthus retroflexus data and give herbicidal action AMARE for CCSCc1c(C(F)(F)F)ccc(C(=O)Nc2nnnn2C)c1C .
a: 80

q: Check Amaranthus retroflexus data and give herbicidal action AMARE for CSCc1c(C(F)(F)F)ccc(C(=O)Nc2nnnn2C)c1C .
a: 100

###

Test system: Stellaria media
ASSAY PROCEDURE: Pre-emergence herbicidal action, STEME
Type: in vivo
DETAILS: dosage 320 g/ha, scored visually after 3 weeks vs untreated controls (100% = plants have died)
# key: entry, value: herbicidal activity STEME
Note: state the figure and append the unit.

Here's what some known entries look like.
CCn1nnnc1NC(=O)c1ccc(C(F)(F)F)c(C[S+](C)[O-])c1SC (stereo not shown) :: 100%
CCS(=O)(=O)Cc1c(C(F)(F)F)ccc(C(=O)Nc2nnnn2C)c1Cl :: 90%
CSCc1c(C(F)(F)F)ccc(C(=O)Nc2nnnn2C)c1F :: 90%

For the next question, use this compound.
q: Item Cn1nnnc1NC(=O)c1ccc(I)c(C[S+](C)[O-])c1Cl (racemic) : provide herbicidal activity STEME
a: 100%

###

Tested on: Veronica persica
ASSAY PROCEDURE: Pre-emergence herbicidal action, VERPE
Type: in vivo
DETAILS: dosage 320 g/ha
# key: entry, value: herbicidal action VERPE
Numeric answer only, unit % assumed.

Here's what some known entries look like.
CCn1nnnc1NC(=O)c1ccc(C(F)F)c(C[S+](C)[O-])c1C (stereo not drawn) [Example 2-108] :: 100
CCn1nnnc1NC(=O)c1ccc(C(F)(F)F)c(CS(=O)(=O)CC)c1C [Example 2-88] :: 100
CCCn1nnnc1NC(=O)c1ccc(S(C)(=O)=O)c(CSC)c1C [Example 3-37] :: 100
CCn1nnnc1NC(=O)c1ccc(Cl)c(CSC)c1Cl [Example 2-559] :: 100
CCCn1nnnc1NC(=O)c1ccc(I)c(C[S+](C)[O-])c1Cl (stereo not drawn) [Example 3-363] :: 90

q: Item CCn1nnnc1NC(=O)c1ccc(S(C)(=O)=O)c(CSC)c1C [Example 2-37] : provide herbicidal action VERPE
a: 100
